Listed here: items and their measured Emax.
- ASSAYED_TARGET: Human AMPK α2β2γ1 (Homo sapiens, UniProt O43741+P54646)
- Construct: The full length cDNAs of human AMPK β2 (NM_005399.3) and human AMPK α2 (NM_006252.3) were inserted; the full length cDNA of human AMPK γ1 (NM_002733.3) had been inserted into pET28b(+); 6xHis (N); made in house; host or cells: Escherichia coli BL21 CodonPlus (DE3)-RIL
- Sequence (P54646 whole entry): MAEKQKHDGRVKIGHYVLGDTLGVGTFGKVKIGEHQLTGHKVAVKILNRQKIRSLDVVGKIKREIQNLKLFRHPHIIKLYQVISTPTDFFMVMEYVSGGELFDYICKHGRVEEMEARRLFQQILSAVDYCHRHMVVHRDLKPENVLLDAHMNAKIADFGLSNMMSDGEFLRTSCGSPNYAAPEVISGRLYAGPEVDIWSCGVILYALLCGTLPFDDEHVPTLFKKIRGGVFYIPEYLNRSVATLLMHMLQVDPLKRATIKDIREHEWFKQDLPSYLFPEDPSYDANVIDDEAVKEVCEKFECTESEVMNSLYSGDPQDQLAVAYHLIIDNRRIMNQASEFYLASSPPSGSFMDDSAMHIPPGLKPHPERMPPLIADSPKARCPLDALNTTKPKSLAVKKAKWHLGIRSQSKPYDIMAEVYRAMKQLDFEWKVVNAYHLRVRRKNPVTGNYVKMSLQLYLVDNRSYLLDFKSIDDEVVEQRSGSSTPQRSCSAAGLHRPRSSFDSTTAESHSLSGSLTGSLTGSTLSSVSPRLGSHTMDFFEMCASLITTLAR
- Sequence (O43741 whole entry): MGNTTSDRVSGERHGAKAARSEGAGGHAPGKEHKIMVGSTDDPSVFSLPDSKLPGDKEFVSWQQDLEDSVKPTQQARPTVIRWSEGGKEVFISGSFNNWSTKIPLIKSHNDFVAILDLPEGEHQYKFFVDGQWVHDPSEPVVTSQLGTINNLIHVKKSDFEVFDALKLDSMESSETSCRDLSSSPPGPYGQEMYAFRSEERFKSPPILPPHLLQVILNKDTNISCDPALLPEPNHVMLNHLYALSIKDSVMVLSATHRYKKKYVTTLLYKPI
- Sequence (P54619 whole entry partner): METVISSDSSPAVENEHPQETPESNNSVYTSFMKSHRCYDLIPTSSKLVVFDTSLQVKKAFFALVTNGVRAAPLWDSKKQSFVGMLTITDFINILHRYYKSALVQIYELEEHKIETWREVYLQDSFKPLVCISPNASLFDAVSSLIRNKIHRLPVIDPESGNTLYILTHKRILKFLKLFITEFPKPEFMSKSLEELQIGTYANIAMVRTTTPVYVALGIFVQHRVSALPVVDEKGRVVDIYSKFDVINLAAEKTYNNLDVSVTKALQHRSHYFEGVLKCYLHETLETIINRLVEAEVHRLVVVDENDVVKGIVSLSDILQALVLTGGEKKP
- MEASUREMENT_DESCRIPTION: Test Example 2: evaluation of activators of AMP-activated protein kinase (mobility-shift assay, FL-Peptide 7)
- Assay type: biochemical
- SETUP_CONDITIONS: human AMPK α2β2γ1 phosphorylated with CaMKK2; control = 100%; read-out: Emax (maximum rate of increase in activity within the measurement range)
Form entry: value (%) — number only.

COMPOUND	ASSAYED_TARGET	READOUT_NUMBER
CC(=O)NC1CC=C(c2ccc(-c3nc4cc(O[C@@H]5CO[C@H]6[C@@H]5OC[C@H]6O)[nH]c4cc3Cl)cc2)CC1 (some centres unmarked)	Human AMPK α2β2γ1 (Homo sapiens, UniProt O43741+P54646)	750

q: Quick one: Emax for N#Cc1c(O[C@@H]2CO[C@H]3[C@@H]2OC[C@H]3O)[nH]c2cc(Cl)c(-c3ccc(C4=CCN(C(=O)CO)CC4)cc3)cc12 ?
a: 559

q: CC(C)(C(=O)O)[C@H]1CC[C@H](Oc2cc3nc(-c4ccc(N5CCOCC5)cc4)c(Cl)cc3[nH]2)CC1 ?
a: 264

q: Next entry: Cc1ccc(Oc2[nH]c3cc(Cl)c(-c4ccc(N5CCOCC5)cc4)cc3c2C#N)cc1C(=O)O
a: 618

q: Please do the same for N#Cc1c(O[C@@H]2CO[C@H]3[C@@H]2OC[C@H]3O)[nH]c2cc(Cl)c(-c3ccc(C4=CCC(C(=O)O)CC4)cc3)cc12 (some centres unmarked) as well.
a: 580

q: Now the same for N#Cc1c(O[C@@H]2CO[C@H]3[C@@H]2OC[C@H]3O)[nH]c2ccc(-c3c(F)cc(C4=CCOCC4)cc3F)nc12
a: 694

q: Follow-up entry: CC(=O)NC/C=C/c1ccc(-c2cc3c(C#N)c(O[C@@H]4CO[C@H]5[C@@H]4OC[C@H]5O)[nH]c3cc2Cl)cc1
a: 503

q: Note, next up: O[C@@H]1CO[C@H]2[C@@H]1OC[C@H]2Oc1cc2nc(-c3ccc(-c4ccccc4)cc3)c(Cl)cc2[nH]1
a: 489

q: Same again, this time with Cc1ccc(Oc2nc3nc(-c4ccc(N5CCOCC5)cc4)c(Cl)cc3[nH]2)cc1C(=O)O [A−1, reference compound]
a: 394

q: O[C@@H]1CO[C@H]2[C@@H]1OC[C@H]2Oc1cc2nc(-c3c(F)cc(N4CCOCC4)cc3F)c(F)cc2[nH]1 ?
a: 729

q: Now consider Cc1ccc(Oc2cc3nc(-c4ccc(N5CCOCC5)cc4)c(Cl)cc3[nH]2)cc1C(=O)O and answer again.
a: 435

q: How about O[C@@H]1CO[C@H]2[C@@H]1OC[C@H]2Oc1cc2nc(-c3ccc(N4CCOCC4)cc3)c(Cl)cc2[nH]1 ?
a: 559

q: Okay, and N#Cc1cc2[nH]c(O[C@@H]3CO[C@H]4[C@@H]3OC[C@H]4O)c(C#N)c2cc1-c1ccc(N2CCOCC2)cc1 ?
a: 587

q: Similarly, CS(=O)(=O)NC1CC=C(c2ccc(-c3nc4cc(O[C@@H]5CO[C@H]6[C@@H]5OC[C@H]6O)[nH]c4cc3Cl)cc2)CC1 (some centres unmarked) ?
a: 727

###

- ASSAYED_TARGET: Human AMPK α2β2γ1 (Homo sapiens, UniProt O43741+P54646)
- Construct: The full length cDNAs of human AMPK β2 (NM_005399.3) and human AMPK α2 (NM_006252.3) were inserted; the full length cDNA of human AMPK γ1 (NM_002733.3) had been inserted into pET28b(+); 6xHis (N); made in house; host or cells: Escherichia coli BL21 CodonPlus (DE3)-RIL
- MEASUREMENT_DESCRIPTION: Test Example 2: evaluation of activators of AMP-activated protein kinase (mobility-shift assay, FL-Peptide 7)
- Format: biochemical
- SETUP_CONDITIONS: human AMPK α2β2γ1 phosphorylated with CaMKK2; control = 100%; read-out: Emax (maximum rate of increase in activity within the measurement range)
METRIC: Emax

Below are worked cases with known answers.
COMPOUND	ASSAYED_TARGET	Emax
CC(=O)NC(C)(C)c1ccc(Oc2cc3nc(-c4c(F)cc(N5CCOCC5)cc4F)ccc3[nH]2)cc1	Human AMPK α2β2γ1 (Homo sapiens, UniProt O43741+P54646)	446%
CC(C)(CO)C(=O)N1CCC(Oc2cc3nc(-c4ccc(N5CCOCC5)cc4)c(Cl)cc3[nH]2)CC1	Human AMPK α2β2γ1 (Homo sapiens, UniProt O43741+P54646)	510%
O=C(O)C1CC=C(c2ccc(-c3nc4cc(O[C@@H]5CO[C@H]6[C@@H]5OC[C@H]6O)[nH]c4cc3Cl)cc2)CC1 (stereo partly drawn)	Human AMPK α2β2γ1 (Homo sapiens, UniProt O43741+P54646)	787%
O[C@@H]1CO[C@H]2[C@@H]1OC[C@H]2Oc1cc2nc(-c3c(F)cc(C4=CCOCC4)cc3F)ccc2[nH]1	Human AMPK α2β2γ1 (Homo sapiens, UniProt O43741+P54646)	661%
N#Cc1c(O[C@@H]2CO[C@H]3[C@@H]2OC[C@H]3O)[nH]c2ccc(-c3c(F)cc(N4CC[C@@H](O)C4)cc3F)nc12	Human AMPK α2β2γ1 (Homo sapiens, UniProt O43741+P54646)	848%

q: Which Emax value belongs to CC(C)(CO)C(=O)N1CCC(Oc2cc3nc(-c4ccc(C5=CCC(C(=O)O)CC5)cc4)c(Cl)cc3[nH]2)CC1 (stereo not drawn) ?
a: 560%

###

- ASSAYED_TARGET: Human AMPK α2β2γ1 (Homo sapiens, UniProt O43741+P54646)
- Construct: The full length cDNAs of human AMPK β2 (NM_005399.3) and human AMPK α2 (NM_006252.3) were inserted; the full length cDNA of human AMPK γ1 (NM_002733.3) had been inserted into pET28b(+); 6xHis (N); made in house; host or cells: Escherichia coli BL21 CodonPlus (DE3)-RIL
- MEASUREMENT_DESCRIPTION: Test Example 2: evaluation of activators of AMP-activated protein kinase (mobility-shift assay, FL-Peptide 7)
- Format: biochemical
- SETUP_CONDITIONS: human AMPK α2β2γ1 phosphorylated with CaMKK2; 25° C., 2 hours; 1% DMSO
METRIC: EC150 (compound concentration showing 150% relative to the control (100%)) (nM)
Could you give me the number in nM? Just the number is fine.

MOLECULE	ASSAYED_TARGET	ENDPOINT_UNIT	READOUT_NUMBER
N#Cc1c(O[C@@H]2CO[C@H]3[C@@H]2OC[C@H]3O)[nH]c2ccc(-c3c(F)cc(C4=CCOCC4)cc3F)nc12 [Compound I-3-45]	Human AMPK α2β2γ1 (Homo sapiens, UniProt O43741+P54646)	nM	26
Cc1ccc(Oc2cc3nc(-c4ccc(N5CCOCC5)cc4)c(Cl)cc3[nH]2)cc1C(=O)O [Compound I-3-50]	Human AMPK α2β2γ1 (Homo sapiens, UniProt O43741+P54646)	nM	63

Please look at the following molecule next.
q: Recorded EC150 (compound concentration showing 150% relative to the control (100%)) for CC(=O)NC1CC=C(c2ccc(-c3nc4cc(O[C@@H]5CO[C@H]6[C@@H]5OC[C@H]6O)[nH]c4cc3Cl)cc2)CC1 (stereo partly drawn) [Compound I-3-46] , please?
a: 0.48

###

- ASSAYED_TARGET: Human AMPK α2β2γ1 (Homo sapiens, UniProt O43741+P54646)
- Construct: The full length cDNAs of human AMPK β2 (NM_005399.3) and human AMPK α2 (NM_006252.3) were inserted; the full length cDNA of human AMPK γ1 (NM_002733.3) had been inserted into pET28b(+); 6xHis (N); made in house; host or cells: Escherichia coli BL21 CodonPlus (DE3)-RIL
- MEASUREMENT_DESCRIPTION: Test Example 2: evaluation of activators of AMP-activated protein kinase (mobility-shift assay, FL-Peptide 7)
- Type: biochemical
- SETUP_CONDITIONS: human AMPK α2β2γ1 phosphorylated with CaMKK2; 25° C., 2 hours; 1% DMSO
METRIC: EC150 (compound concentration showing 150% relative to the control (100%)) (nM)
Number in nM, nothing else.

MOLECULE	ASSAYED_TARGET	READOUT_NUMBER
O=C(O)C1CC=C(c2ccc(-c3nc4cc(O[C@@H]5CO[C@H]6[C@@H]5OC[C@H]6O)[nH]c4cc3Cl)cc2)CC1 (stereo partly drawn)	Human AMPK α2β2γ1 (Homo sapiens, UniProt O43741+P54646)	0.21

q: Quick one: EC150 (compound concentration showing 150% relative to the control (100%)) of O[C@@H]1CO[C@H]2[C@@H]1OC[C@H]2Oc1cc2nc(-c3c(F)cc(C4=CCOCC4)cc3F)ccc2[nH]1 ?
a: 2.6

q: How about this molecule: CC(C)(CO)C(=O)N1CCC(Oc2cc3nc(-c4ccc(N5CCOCC5)cc4)c(Cl)cc3[nH]2)CC1
a: 54
